system: H9c2 cardiomyocytes, 2-deoxyglucose stress, ATP luminescence, 2 h; test: H9c2 cell survival under 2-deoxyglucose stress – uHTS hits, dose response (AID 588780)
The source made the active and inactive calls.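 Rule for the calls: active = compounds whose fitted half-maximal concentration in the cell-protection dose series is at or below a set limit; inactive = the rest.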
Hello, when you answer, please use one of the following outcomes: yes for active, no for inactive

Please review the entries below; each comes with its answer.
INSERT INTO results (compound, tested_system, class_name) VALUES
  ('COC(=O)Sc1nc(N2CCOCC2)c2c(c1C#N)CC(C)(C)OC2', 'H9c2 cardiomyocytes, 2-deoxyglucose stress, ATP luminescence, 2 h', 'no'),
  ('O=C(CN1C(=O)C2CC=CCC2C1=O)Nc1nc(-c2ccc(F)cc2)cs1 (stereo not given)', 'H9c2 cardiomyocytes, 2-deoxyglucose stress, ATP luminescence, 2 h', 'yes'),
  ('COCCCNC(=O)/C(C#N)=C1\N=C(NC(=O)c2cccs2)c2ccccc21', 'H9c2 cardiomyocytes, 2-deoxyglucose stress, ATP luminescence, 2 h', 'no'),
  ('O=C(NCCc1ccc(F)cc1)C(=O)Nc1cc2c3c(c1)CC(=O)N3CCC2', 'H9c2 cardiomyocytes, 2-deoxyglucose stress, ATP luminescence, 2 h', 'yes'),
  ('CC(C)c1ccccc1NC(=O)COC(=O)c1c2c(nc3ccccc13)CCN(Cc1ccccc1)C2', 'H9c2 cardiomyocytes, 2-deoxyglucose stress, ATP luminescence, 2 h', 'no'),
  ('O=C(Nc1ccc2c(c1)[nH]c(=O)c1ccccc12)C(F)(F)F', 'H9c2 cardiomyocytes, 2-deoxyglucose stress, ATP luminescence, 2 h', 'no');

Task: In this assay, the call recorded for CCOc1ccc(-n2c(C)c(C(C)=O)c3cc(OC(C)=O)ccc32)cc1 was what?
Output: no

Task: In this assay, the call recorded for O=c1cc(-c2ccc([N+](=O)[O-])cc2)c2ccc(O)cc2o1 was what?
Output: no

Task: In this assay, the call recorded for C=CC[C@@H](CC(=O)NCCO)C(=O)NC[C@H](OC(=O)[C@@H](CC=C)Cc1ccc(F)cc1)c1ccccc1 was what?
Output: no

Task: In this assay, the call recorded for COc1cc(-c2cc(NC=O)c3ncc(-c4cccc(C(F)(F)F)c4)n3c2)cc(OC)c1OC was what?
Output: no
